These measurements were taken from ChEMBL document CHEMBL2440056.

Test system: Mus musculus
Assay: Hypoglycemic effect in sucrose-challenged ICR mouse assessed as blood glucose level at 10 mg/kg, po after 60 mins by glucose oxidase method (reference value: 183.3 +/- 29.1 mg/dL)
Assay type: functional
Activity: recorded values
Give just the number in mg/dL; leave the unit off.

Answered cases to consult:
1) OC[C@H]1N[C@H](CO)[C@@H](O)[C@H](O)[C@H]1O | 149.9
2) CN1[C@H](CO)[C@H](O)[C@@H](O)[C@H](O)[C@H]1CO | 114
3) OC[C@@H](O)[C@H]1N[C@H](CO)[C@@H](O)[C@@H]1O | 147.3
4) OC[C@H]1N[C@H](CO[C@@H]2O[C@H](CO)[C@@H](O)[C@H](O)[C@H]2O)[C@H](O)[C@@H](O)[C@@H]1O | 135.1

Reported Activity, compound C[C@H]1O[C@H](O[C@H]2[C@H](O)[C@@H](O)[C@@H](O[C@H]3[C@H](O)[C@@H](O)C(O)O[C@@H]3CO)O[C@@H]2CO)[C@H](O)[C@@H](O)[C@@H]1N[C@H]1C=C(CO)[C@@H](O)[C@H](O)[C@H]1O (stereo not given in full) [ACARBOSE] : ____
118.4

====

System: Mus musculus
Assay: Hypoglycemic effect in starch-challenged ICR mouse assessed as blood glucose level at 10 mg/kg, po after 60 mins by glucose oxidase method (reference value: 243.0 +/- 29.0 mg/dL)
Assay type: functional
Activity: recorded values
Give just the number in mg/dL; leave the unit off.

1. OC[C@@H](O)[C@H]1N[C@H](CO)[C@@H](O)[C@@H]1O | 216.2
2. CN1[C@H](CO)[C@H](O)[C@@H](O)[C@H](O)[C@H]1CO | 144.8

Reported Activity, compound `OC[C@H]1N[C@H](CO[C@@H]2O[C@H](CO)[C@@H](O)[C@H](O)[C@H]2O)[C@H](O)[C@@H](O)[C@@H]1O` : ____
204.1

Reported Activity, compound `OC[C@H]1N[C@H](CO)[C@@H](O)[C@H](O)[C@H]1O` : ____
176.4

Reported Activity, compound C[C@H]1O[C@H](O[C@H]2[C@H](O)[C@@H](O)[C@@H](O[C@H]3[C@H](O)[C@@H](O)C(O)O[C@@H]3CO)O[C@@H]2CO)[C@H](O)[C@@H](O)[C@@H]1N[C@H]1C=C(CO)[C@@H](O)[C@H](O)[C@H]1O (stereo not given in full) [ACARBOSE] : ____
187.7
